Numbers sourced from patent US20220380319A1.

Biological target: acid ceramidase (Homo sapiens, UniProt Q13510)
Construct: Cell lysates overexpressing acid ceramidase were used as the enzyme source; expressed in transfected cells
Sequence (Q13510 22-395): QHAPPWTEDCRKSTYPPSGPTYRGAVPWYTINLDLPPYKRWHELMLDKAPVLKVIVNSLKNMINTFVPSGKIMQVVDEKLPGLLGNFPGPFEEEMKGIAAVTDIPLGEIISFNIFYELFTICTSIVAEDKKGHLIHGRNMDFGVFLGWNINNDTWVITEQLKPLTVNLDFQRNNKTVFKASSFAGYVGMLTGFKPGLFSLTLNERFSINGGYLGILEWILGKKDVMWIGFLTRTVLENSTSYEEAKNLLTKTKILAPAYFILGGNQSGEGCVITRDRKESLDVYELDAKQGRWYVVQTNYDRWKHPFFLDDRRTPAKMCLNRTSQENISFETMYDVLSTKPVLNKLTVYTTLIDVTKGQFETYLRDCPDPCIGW
Assay: Acid ceramidase inhibition, biochemical fluorescent assay with cell lysates overexpressing acid ceramidase, substrate Rbm14-12
Details: substrate Rbm14-12 6.3 μM, pH 4.5
pIC50: −log10 of the molar value.
Exercise: for every item that follows, state its recorded pIC50.

## Task Return reported pIC50; argument: COc1nc2cc(F)c(N3CCOCC3)cc2n1C(=O)NCC#CC(C)C [Example 321b]
## Result 6.00 to 6.70

## Task Would you kindly share the measured pIC50 for CN1CCN(c2cccc3c2ncn3C(=O)NCCCc2ccccc2)CC1 ?
## Result > 6.70

## Task Fill in the blank: the reported pIC50 of COc1nc2ccc(N3CCOCC3)cc2n1C(=O)NCCCc1ccc(F)cc1 [Example 221a] is ____.
## Result > 6.70

## Task Which measured pIC50 value corresponds to CC(C)CCNC(=O)n1cnc2c(N3CC(C)(C#N)C3)cccc21 ?
## Result 6.00 to 6.70

## Task Item CN1CCN(c2cccc3c2ncn3C(=O)NCC#CCC2(C(F)(F)F)CC2)CC1 has what recorded pIC50?
## Result > 6.70

## Task Reported pIC50 for CC(C)CCNC(=O)n1cnc2c(N3CCN(C4CN(C)C4)CC3)cccc21 : what is it?
## Result 6.00 to 6.70

## Task For the molecule shown here, CC(C)C#CCNC(=O)n1cnc2c(N3CCN(C)C(CC#N)C3)cccc21 (stereo not shown) , give the reported pIC50.
## Result > 6.70

## Task Look at this molecule and give its reported pIC50. CC(C)CCNC(=O)n1cnc2c(N3CCOC(C)(C)C3)cccc21
## Result 6.00 to 6.70

## Task Entry CC#CCNC(=O)n1cnc2c(N3CCN(C)CC3)cccc21 : reported pIC50 = ?
## Result 6.00 to 6.70

## Task Can you share its pIC50? I mean this molecule: CC(C)CCNC(=O)n1cnc2c(N3CCCOCC3)cccc21
## Result 6.00 to 6.70

## Task What value of measured pIC50 is listed for CC(C)C#CCNC(=O)n1cnc2c(N3CCC4(CCCN4C)CC3)cccc21 ?
## Result > 6.70

## Task Given the molecule COc1nc2cc(N3CCN(C4CN(C)C4)CC3)c(F)cc2n1C(=O)NCC#CC(C)C [Example 320a] , what is its reported pIC50?
## Result < 6.00

## Task Given the entry O=C(NCCCc1ccccc1)n1cnc2c(N3CC4CNCC4C3)cccc21 (stereo not shown) , report its measured pIC50.
## Result > 6.70
